experimentDescription: Chemical stability of the emulsion (peptide content by LC/MS)
Format: physicochemical
details: emulsion of Example 5, 2 month at −20° C.
Procedure: The chemical stability of the peptides contained in the emulsion prepared according to Example 5 is assessed by means of the following method. A sample of 0.9 g of the emulsion of Example 5 is accurately weighted and mixed with 0.1% TFA in DMSO so as to fill a 5 mL volumetric flask. The mixture is then vortexed for 2 minutes and centrifuged for 7 minutes at 4000 rpm. The lower layer is then analyzed by Liquid Chromatography/Mass Spectroscopy (LC/MS) using the following chromatographic conditions: […]
quantityMeasured: Content after 2 month at −20° C.
Don't forget the unit after the number, please.

Below: 4 substances and their reported Content after 2 month at −20° C..
For this substance ( aKXVAAWTLKAAa [MPS-7, peptide with X and a respectively indicating cyclohexylalanine and d-alanine] ), measured Content after 2 month at −20° C. is 0.56 mg/g

# substance KLBPVQLWV [MPS-102] ; its Content after 2 month at −20° C. = 0.55 mg/g

Record YLSGADLNL [MPS-200] , field Content after 2 month at −20° C.: 0.56 mg/g

Given item RLLQETELV [MPS-112] , the value recorded as its Content after 2 month at −20° C. is 0.55 mg/g

***
Short answer for LLTFWNPPV [MPS-213] : Content after 2 month at −20° C. was 0.55 mg/g

Content after 2 month at −20° C. for SMPPPGTRV [MPS-103] is 0.55 mg/g

Value of measured Content after 2 month at −20° C. for the entry IMIGHLVGV [MPS-214] : 0.51 mg/g

---

experimentDescription: Chemical stability of the emulsion (peptide content by LC/MS)
Format: physicochemical
details: emulsion of Example 5, initial
quantityMeasured: Initial content (mg/g)
Please respond with the number in mg/g and leave the unit unwritten.

Recorded Initial content (substance SMPPPGTRV [MPS-103] ): 0.55

get_value(item= IMIGHLVGV [MPS-214] , readout=Initial content) returns 0.53

Initial content for aKXVAAWTLKAAa [MPS-7, peptide with X and a respectively indicating cyclohexylalanine and d-alanine] is 0.58

The reported value for KLBPVQLWV [MPS-102] in terms of Initial content is 0.57

Quick note, Initial content for LLTFWNPPV [MPS-213] landed at 0.56

# Initial content of YLSGADLNL [MPS-200] = 0.58

Next:
Note to self: Initial content recorded for RLLQETELV [MPS-112] was 0.57

---

Each entry below carries its recorded Content after 2 month at 25° C..
experimentDescription: Chemical stability of the emulsion (peptide content by LC/MS)
Format: physicochemical
details: emulsion of Example 5, 2 month at 25° C.
Reply with just the number (in mg/g).

The substance listed as KLBPVQLWV [MPS-102] shows Content after 2 month at 25° C. equal to 0.55

Documented Content after 2 month at 25° C. of LLTFWNPPV [MPS-213] : 0.54

Sure, the documented Content after 2 month at 25° C. for aKXVAAWTLKAAa [MPS-7, peptide with X and a respectively indicating cyclohexylalanine and d-alanine] is 0.56

response.value for RLLQETELV [MPS-112] (field: Content after 2 month at 25° C.) = 0.55

Next:
Kindly note the recorded Content after 2 month at 25° C. for IMIGHLVGV [MPS-214] , which is 0.50

Looking up YLSGADLNL [MPS-200] , I found its Content after 2 month at 25° C. recorded as 0.55

// Content after 2 month at 25° C. value for SMPPPGTRV [MPS-103] : 0.54

---

experimentDescription: Peptide concentration in emulsions prepared with different stirring times
Type: physicochemical
details: stirring time 10 minutes, initial concentration in emulsion
quantityMeasured: Concentration (µg/mL)
Use µg/mL as the unit, but write only the number.

Below: 4 substances and their reported Concentration.
# substance KLBPVQLWV [MPS-102] ; its Concentration = 570

Item: aKXVAAWTLKAAa [MPS-7, peptide with X and a respectively indicating cyclohexylalanine and d-alanine] | Concentration: 580

The reported Concentration of the substance IMIGHLVGV [MPS-214] was 530

So, LLTFWNPPV [MPS-213] ? Its Concentration was 560

New cases:
For RLLQETELV [MPS-112] the substance record lists Concentration as 570

The substance SMPPPGTRV [MPS-103] showed Concentration equal to 560

What the record says about YLSGADLNL [MPS-200] : Concentration is 570

---

experimentDescription: Peptide concentration in emulsions prepared with different stirring times
Assay type: physicochemical
details: stirring time 15 minutes, initial concentration in emulsion
The following substances are listed with their measured Concentration values.
Please give the number followed by its unit.

# count of solved cases: 4
Concentration in this record for aKXVAAWTLKAAa [MPS-7, peptide with X and a respectively indicating cyclohexylalanine and d-alanine] : 0.57 mg/mL

Concentration reported for this substance RLLQETELV [MPS-112] : 0.56 mg/mL

The recorded Concentration for KLBPVQLWV [MPS-102] is 0.56 mg/mL

The value of Concentration measured for the substance SMPPPGTRV [MPS-103] turned out to be 0.54 mg/mL

Next:
Entry IMIGHLVGV [MPS-214] , Concentration reported as 0.53 mg/mL

Summary for this substance, LLTFWNPPV [MPS-213] : Concentration is 0.56 mg/mL

What the record says about YLSGADLNL [MPS-200] : Concentration is 0.57 mg/mL

---

The entries below come with measured Concentration values attached.
experimentDescription: Peptide concentration in emulsions prepared with different stirring times
Type: physicochemical
details: stirring time 5 minutes, initial concentration in emulsion
Respond with a number, then the unit of measure.

// Concentration value for RLLQETELV [MPS-112] : 0.56 mg/mL

// recorded Concentration for KLBPVQLWV [MPS-102] : 0.56 mg/mL

Per the records, this substance ( SMPPPGTRV [MPS-103] ) has Concentration equal to 0.53 mg/mL

Concentration reading for IMIGHLVGV [MPS-214] : 0.53 mg/mL

For reference, reported Concentration for aKXVAAWTLKAAa [MPS-7, peptide with X and a respectively indicating cyclohexylalanine and d-alanine] stands at 0.58 mg/mL

Continuing:
Documented Concentration of LLTFWNPPV [MPS-213] : 0.56 mg/mL

The value of Concentration measured for the substance YLSGADLNL [MPS-200] turned out to be 0.57 mg/mL

---

experimentDescription: Chemical stability of the emulsion (peptide content by LC/MS)
Type: physicochemical
details: emulsion of Example 5, 2 month at 5° C.
quantityMeasured: Content after 2 month at 5° C. (mg/g)
Supply the numeric figure in mg/g, leaving out any unit text.

For aKXVAAWTLKAAa [MPS-7, peptide with X and a respectively indicating cyclohexylalanine and d-alanine] the substance record lists Content after 2 month at 5° C. as 0.56

New cases:
Memo: RLLQETELV [MPS-112] , reported Content after 2 month at 5° C.: 0.55

Record IMIGHLVGV [MPS-214] , field Content after 2 month at 5° C.: 0.51

Measured Content after 2 month at 5° C., LLTFWNPPV [MPS-213] : 0.54

# substance SMPPPGTRV [MPS-103] ; its Content after 2 month at 5° C. = 0.54

// YLSGADLNL [MPS-200] : Content after 2 month at 5° C. value = 0.56

Value of Content after 2 month at 5° C. reported for the substance KLBPVQLWV [MPS-102] is 0.55
